# assayedSystem: hPXR (Homo sapiens, UniProt O75469)
# Sequence (O75469 1-434): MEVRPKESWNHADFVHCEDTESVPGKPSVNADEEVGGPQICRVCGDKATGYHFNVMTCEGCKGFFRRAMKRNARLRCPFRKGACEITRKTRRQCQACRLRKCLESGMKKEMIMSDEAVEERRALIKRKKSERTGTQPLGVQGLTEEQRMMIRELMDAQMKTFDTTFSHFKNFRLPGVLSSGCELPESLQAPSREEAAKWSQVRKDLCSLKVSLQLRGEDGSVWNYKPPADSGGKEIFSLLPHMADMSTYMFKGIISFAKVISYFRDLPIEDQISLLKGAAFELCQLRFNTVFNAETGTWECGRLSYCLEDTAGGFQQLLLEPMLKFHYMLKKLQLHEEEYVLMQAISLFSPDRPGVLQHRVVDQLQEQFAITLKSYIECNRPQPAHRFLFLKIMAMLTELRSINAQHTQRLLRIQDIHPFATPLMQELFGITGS
# Sequence (P19793 1-462 partner): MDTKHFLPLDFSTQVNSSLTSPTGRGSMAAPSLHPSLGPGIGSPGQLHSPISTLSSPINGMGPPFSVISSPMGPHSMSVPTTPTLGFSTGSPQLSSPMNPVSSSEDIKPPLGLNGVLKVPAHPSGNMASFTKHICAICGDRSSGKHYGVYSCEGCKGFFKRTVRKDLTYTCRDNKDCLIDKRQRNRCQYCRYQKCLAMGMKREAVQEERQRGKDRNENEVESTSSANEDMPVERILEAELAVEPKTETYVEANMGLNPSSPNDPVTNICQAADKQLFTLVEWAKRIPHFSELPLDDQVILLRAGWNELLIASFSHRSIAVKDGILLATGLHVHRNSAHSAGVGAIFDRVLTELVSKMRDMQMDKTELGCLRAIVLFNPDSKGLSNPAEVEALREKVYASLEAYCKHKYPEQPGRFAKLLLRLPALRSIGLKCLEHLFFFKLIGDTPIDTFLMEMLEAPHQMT
# assaySummary: Transactivation luciferase reporter assay in COS-1 cells, CMV2-PXR
# protocolConditions: COS-1, 2B6-XREM-PBREM reporter, 24 h, Figure 2
propertyLabel: activation of hPXR (screen)

O=C(O)c1ccccc1C(=O)O [PA, phthalic acid] = no or minimal activation
CCOC(=O)c1ccccc1C(=O)O [MEP, monoethyl phthalate] = no or minimal activation
CCCCC(CC)COC(=O)c1ccccc1C(=O)OCC(CC)CCCC (centres unmarked) [DEHP, di(2-ethylhexyl) phthalate] = activated hCAR2 and hPXR
CC(C)CCCCCCOC(=O)c1ccccc1C(=O)OCCCCCCC(C)C [DiNP, di-isononyl phthalate] = activated hCAR2 and hPXR

###

# assayedSystem: hCAR2 (Homo sapiens, UniProt Q14994)
# Sequence (Q14994 1-352): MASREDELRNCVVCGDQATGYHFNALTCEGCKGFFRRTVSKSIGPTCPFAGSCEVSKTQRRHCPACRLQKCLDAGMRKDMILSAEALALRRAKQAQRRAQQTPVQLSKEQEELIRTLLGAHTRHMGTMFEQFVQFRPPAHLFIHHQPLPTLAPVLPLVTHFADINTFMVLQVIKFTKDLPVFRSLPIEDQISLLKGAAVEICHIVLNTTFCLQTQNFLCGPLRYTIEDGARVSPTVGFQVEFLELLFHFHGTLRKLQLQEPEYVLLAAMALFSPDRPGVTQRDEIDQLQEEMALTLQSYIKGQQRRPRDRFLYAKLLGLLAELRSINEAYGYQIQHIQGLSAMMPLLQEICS
# Sequence (P19793 1-462 partner): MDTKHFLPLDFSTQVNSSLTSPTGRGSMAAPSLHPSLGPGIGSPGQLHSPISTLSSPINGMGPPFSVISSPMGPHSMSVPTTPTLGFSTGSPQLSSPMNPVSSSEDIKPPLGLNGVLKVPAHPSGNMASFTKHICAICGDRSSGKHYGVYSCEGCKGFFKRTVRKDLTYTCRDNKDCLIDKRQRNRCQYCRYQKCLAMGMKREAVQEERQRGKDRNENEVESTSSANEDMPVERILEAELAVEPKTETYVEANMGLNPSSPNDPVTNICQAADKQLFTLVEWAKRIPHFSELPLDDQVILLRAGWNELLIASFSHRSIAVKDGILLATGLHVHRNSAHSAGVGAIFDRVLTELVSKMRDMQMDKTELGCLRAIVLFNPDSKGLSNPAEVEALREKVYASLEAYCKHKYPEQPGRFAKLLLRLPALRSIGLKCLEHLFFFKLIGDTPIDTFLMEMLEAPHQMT
# assaySummary: Transactivation luciferase reporter assay in COS-1 cells, CMV2-CAR2
propertyLabel: pEC50
Note on units: pEC50 is unitless, being -log10 of a concentration expressed in mol/L.

Ask: I am curious: what pEC50 value has been reported for CCCCC(CC)COC(=O)c1ccccc1C(=O)OCC(CC)CCCC (stereo not shown) [DEHP, di(2-ethylhexyl) phthalate] ?
Reply: 7.00

###

# assayedSystem: hCAR3 (Homo sapiens, UniProt Q14994, DEL233-236)
# assaySummary: Transactivation luciferase reporter assay in COS-1 cells, CMV2-CAR3
# Format: cell-based
# protocolConditions: COS-1, 2B6-XREM-PBREM reporter, 24 h, Figure 2
propertyLabel: activation of hCAR3 (screen)

CCOC(=O)c1ccccc1C(=O)O [MEP, monoethyl phthalate] = no or minimal activation
CCCCC(CC)COC(=O)c1ccccc1C(=O)OCC(CC)CCCC (stereo not shown) [DEHP, di(2-ethylhexyl) phthalate] = only minimal activity
CC(C)CCCCCCOC(=O)c1ccccc1C(=O)OCCCCCCC(C)C [DiNP, di-isononyl phthalate] = only minimal activity
O=C(O)c1ccccc1C(=O)O = no or minimal activation

###

# assayedSystem: hCAR1 (Homo sapiens, UniProt Q14994)
# assaySummary: Transactivation luciferase reporter assay in COS-1 cells, CMV2-CAR1
# Assay type: cell-based
# protocolConditions: COS-1, 2B6-XREM-PBREM reporter, ANDRO 10 μM, 24 h, Figure 2
propertyLabel: activation of hCAR1 (screen)

CCOC(=O)c1ccccc1C(=O)O [MEP, monoethyl phthalate] = no or minimal activation
O=C(O)c1ccccc1C(=O)O = no or minimal activation

###

# assayedSystem: hCAR2 (Homo sapiens, UniProt Q14994)
# Sequence (Q14994 1-352): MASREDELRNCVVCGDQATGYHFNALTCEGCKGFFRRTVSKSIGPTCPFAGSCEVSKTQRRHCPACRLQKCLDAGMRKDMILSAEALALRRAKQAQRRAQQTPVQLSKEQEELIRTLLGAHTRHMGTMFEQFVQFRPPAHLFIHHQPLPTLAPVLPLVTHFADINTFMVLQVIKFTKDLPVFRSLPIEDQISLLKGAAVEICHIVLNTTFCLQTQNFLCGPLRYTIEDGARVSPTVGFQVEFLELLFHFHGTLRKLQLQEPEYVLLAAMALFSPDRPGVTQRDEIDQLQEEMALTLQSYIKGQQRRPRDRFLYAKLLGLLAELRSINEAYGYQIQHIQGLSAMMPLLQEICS
# Sequence (P19793 1-462 partner): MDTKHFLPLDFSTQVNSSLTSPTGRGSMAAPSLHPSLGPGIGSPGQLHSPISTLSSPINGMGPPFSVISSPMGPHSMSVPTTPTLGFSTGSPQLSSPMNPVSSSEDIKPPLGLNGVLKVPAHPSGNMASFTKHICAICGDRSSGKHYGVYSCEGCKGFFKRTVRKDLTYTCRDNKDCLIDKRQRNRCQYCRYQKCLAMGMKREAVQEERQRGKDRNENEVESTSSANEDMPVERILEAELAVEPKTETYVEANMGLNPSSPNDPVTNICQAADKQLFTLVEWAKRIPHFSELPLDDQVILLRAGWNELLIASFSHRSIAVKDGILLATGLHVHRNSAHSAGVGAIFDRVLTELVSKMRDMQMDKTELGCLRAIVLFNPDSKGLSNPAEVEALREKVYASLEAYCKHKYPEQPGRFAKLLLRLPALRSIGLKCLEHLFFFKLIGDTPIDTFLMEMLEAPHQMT
# assaySummary: Transactivation luciferase reporter assay in COS-1 cells, CMV2-CAR2
# Assay type: cell-based
# protocolConditions: COS-1, 2B6-XREM-PBREM reporter, 24 h, Figure 2
propertyLabel: activation of hCAR2 (screen)

CC(C)CCCCCCOC(=O)c1ccccc1C(=O)OCCCCCCC(C)C [DiNP, di-isononyl phthalate] = activated hCAR2 and hPXR
CCOC(=O)c1ccccc1C(=O)O [MEP, monoethyl phthalate] = no or minimal activation
CCCCC(CC)COC(=O)c1ccccc1C(=O)OCC(CC)CCCC (stereo not shown) [DEHP, di(2-ethylhexyl) phthalate] = activated hCAR2 and hPXR
O=C(O)c1ccccc1C(=O)O = no or minimal activation

Data origin, for the record: paper PMC5144158
